Biological target: recombinant N-terminal GST-tagged human Rho kinase 2 (ROCK2, amino acids 1-552) (Homo sapiens, UniProt O75116)
Construct: ROCK2, amino acids 1-552, Invitrogen Inc., cat #PV3759; GST (N)
Sequence (O75116 1-552): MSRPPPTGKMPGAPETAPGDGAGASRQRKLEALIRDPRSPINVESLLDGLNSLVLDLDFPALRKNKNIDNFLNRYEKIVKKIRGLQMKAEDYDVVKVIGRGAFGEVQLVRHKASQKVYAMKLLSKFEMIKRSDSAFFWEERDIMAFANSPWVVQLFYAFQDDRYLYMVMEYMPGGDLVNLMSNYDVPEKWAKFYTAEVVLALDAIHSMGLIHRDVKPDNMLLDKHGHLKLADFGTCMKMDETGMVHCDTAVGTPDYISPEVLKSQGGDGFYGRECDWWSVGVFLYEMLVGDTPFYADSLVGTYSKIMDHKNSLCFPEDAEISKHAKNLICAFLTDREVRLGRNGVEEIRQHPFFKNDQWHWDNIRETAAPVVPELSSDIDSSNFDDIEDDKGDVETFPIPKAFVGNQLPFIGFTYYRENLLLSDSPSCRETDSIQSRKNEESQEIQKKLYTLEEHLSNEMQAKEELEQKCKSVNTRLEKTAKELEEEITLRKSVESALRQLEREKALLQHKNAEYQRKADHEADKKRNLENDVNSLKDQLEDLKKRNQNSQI
Assay: In vitro Rho kinase assay (luciferase-based ATP consumption), ROCK2
Description: Rho kinase biochemical assays described below depend on firefly luciferase-based, indirect measurement of total ATP consumption by the kinase following incubation with substrate and ATP. […] After an additional 10 minute incubation at room temperature (about 22° C.), luminescence activity is measured on a Molecular Devices Analyst multi-mode plate reader or other suitable plate reader. Kinase inhibition results in less ATP consumption, and therefore increased luminescence signal. […]
Provide the recorded IC50 for the entries that follow.

COMPOUND	IC50
Cc1csc(C(=O)NCc2nc(-c3ccncc3)n[nH]2)c1 [Example 48]	< 5 µM

Give me IC50 for each of these compounds, listed below.
1. CC(C)(C)C(=O)Oc1ccc(C(=O)NCc2nc(-c3ccncc3)n[nH]2)cc1 [Example 38]
2. Cc1ccc(C(=O)NCc2nc(-c3ccncc3)n[nH]2)c(O)c1 [Example 27]
3. COc1ccc(C(=O)NCc2nc(-c3ccncc3)n[nH]2)cc1C [Example 40]
4. O=C(NCc1nc(-c2ccncc2)n[nH]1)c1nccs1 [Example 20]
5. Cc1c(O)ccc(C(=O)NCc2nc(-c3ccncc3)n[nH]2)c1O [Example 46]
6. COc1ccc(C(=O)NCc2nc(-c3ccncc3)no2)cc1 [Example 4]
7. CS(=O)(=O)Nc1ccc(C(=O)NCc2nc(-c3ccncc3)n[nH]2)cc1 [Example 44]

1: > 5 µM; 2: < 5 µM; 3: > 5 µM; 4: < 5 µM; 5: < 5 µM; 6: > 5 µM; 7: > 5 µM

Field: IC50. Fill in for each record below.
1. CC(C)(C)OC(=O)NC[C@H](NC(=O)c1ccc(O)cc1O)c1nc(-c2ccncc2)n[nH]1 [Example 79]
2. O=C(Nc1cccc2c(-c3ccncc3)n[nH]c12)c1cccs1 [Example 68]
3. CCc1cccc(C(=O)NCc2nc(-c3ccncc3)n[nH]2)c1O [Example 52]
4. O=C(NCc1nc(-c2ccncc2)c[nH]1)c1ccc(O)cc1O [Example 6]
5. CS(=O)(=O)Nc1ccccc1C(=O)NCc1nc(-c2ccncc2)n[nH]1 [Example 29]
6. Cc1cc(C(=O)NCc2nc(-c3ccncc3)n[nH]2)ccc1O [Example 45]
7. CS(=O)(=O)Nc1cccc(C(=O)NCc2nc(-c3c[nH]c4ncccc34)cs2)c1 [Example 73]

< 5 µM
> 5 µM
< 5 µM
< 5 µM
> 5 µM
< 5 µM
< 5 µM

----------
Would you mind telling me the reported IC50 of each entry?
target: recombinant N-terminal GST-tagged human Rho kinase 1 (ROCK1, amino acids 1-535) (Homo sapiens, UniProt Q13464); construct: ROCK1, amino acids 1-535, Invitrogen Inc., cat. #PV-3691; GST (N); assay: In vitro Rho kinase assay (luciferase-based ATP consumption), ROCK1
Sequence (Q13464 1-535): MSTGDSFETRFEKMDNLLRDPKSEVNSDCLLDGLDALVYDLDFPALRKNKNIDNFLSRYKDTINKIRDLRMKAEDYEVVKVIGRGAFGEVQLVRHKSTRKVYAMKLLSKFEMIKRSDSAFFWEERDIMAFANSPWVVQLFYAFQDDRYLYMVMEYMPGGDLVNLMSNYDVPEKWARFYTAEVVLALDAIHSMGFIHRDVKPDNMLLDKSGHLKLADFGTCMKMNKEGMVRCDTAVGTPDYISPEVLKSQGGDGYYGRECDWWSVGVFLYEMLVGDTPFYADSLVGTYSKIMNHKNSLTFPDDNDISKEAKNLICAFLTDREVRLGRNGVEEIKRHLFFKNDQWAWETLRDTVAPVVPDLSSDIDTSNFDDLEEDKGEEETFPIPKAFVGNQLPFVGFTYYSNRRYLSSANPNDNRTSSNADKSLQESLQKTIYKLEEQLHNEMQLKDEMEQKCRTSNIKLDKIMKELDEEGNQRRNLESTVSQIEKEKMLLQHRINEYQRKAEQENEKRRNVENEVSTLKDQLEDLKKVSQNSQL

COMPOUND	IC50
Oc1ccc(C(O)CCc2nc(-c3ccncc3)n[nH]2)cc1 (stereo not shown) [Example 64]	> 5 µM
CC(C)(C)OC(=O)NCCCC(NC(=O)c1ccc(O)cc1O)c1nc(-c2ccncc2)n[nH]1 (stereo not shown) [Example 78]	< 5 µM

Look at each compound and report its IC50.
1. O=C(NCc1c[nH]c(-c2ccncc2)n1)c1cccs1 [Example 14]
2. COc1cccc(C(=O)NCc2nc(-c3c[nH]c4ncccc34)cs2)c1 [Example 74]
3. O=C(NCc1nc(-c2c[nH]c3ncccc23)n[nH]1)c1cccs1 [Example 70]
4. O=C(NCc1c[nH]c(-c2ccncc2)n1)c1ccc(O)cc1O [Example 12]

1: > 5 µM; 2: < 5 µM; 3: < 5 µM; 4: < 5 µM

Count: 4. Required value per item: IC50.
1. CS(=O)(=O)Nc1cccc(C(=O)NCc2nc(-c3c[nH]c4ncccc34)n[nH]2)c1 [Example 72]
2. O=C(NCc1nc(-c2ccncc2)no1)c1cccs1 [Example 2]
3. O=C(NCc1nc(-c2c[nH]c3ncccc23)n[nH]1)c1ccc(O)cc1O [Example 69]
4. O=C(c1cccs1)N1CCCC1c1nc(-c2ccncc2)n[nH]1 (stereo not shown) [Example 67]

["< 5 µM", "> 5 µM", "< 5 µM", "> 5 µM"]

Parameter requested: IC50. Apply to each item below.
1. O=C(NCc1nc(-c2ccncc2)c[nH]1)c1cccs1 [Example 5]
2. CC(C)(C)C(=O)Oc1ccc(C(=O)NCc2nc(-c3ccncc3)n[nH]2)cc1 [Example 38]
3. CC(C)(C)OC(=O)NCC[C@H](NC(=O)c1ccc(O)cc1O)c1nc(-c2ccncc2)n[nH]1 [Example 77]
4. COc1cccc(C(=O)NCc2nc(-c3ccncc3)n[nH]2)c1 [Example 18]
5. O=C(NCc1nc(-c2ccncc2)n[nH]1)c1cccc2cc[nH]c12 [Example 42]
6. CC(NC(=O)c1ccc(O)cc1O)c1nc(-c2ccncc2)n[nH]1 (stereo not shown) [Example 66]
7. O=C(NCc1nc(-c2ccncc2)n[nH]1)c1cccc2c1OCC2 [Example 43]

["< 5 µM", "> 5 µM", "< 5 µM", "> 5 µM", "< 5 µM", "< 5 µM", "< 5 µM"]

I would be grateful if you could provide IC50 for each of the following entries.
1. O=C(NCc1nc(-c2ccncc2)n[nH]1)c1ccccc1O [Example 25]
2. Cc1cccc(C(=O)NCc2cc(-c3ccncc3)n[nH]2)c1O [Example 10]

1: < 5 µM; 2: < 5 µM

Data provenance is patent US20080021217A1.
